# target desc: EGFR on the surface of human tumour cells (A431, H292) (human, UniProt P00533 25-1210)
# experimental protocol: cell-based or functional assay
quantity name: % inhibition of EGFR phosphorylation at 100 nM binder, cell-based assay (%)

>>> value_measured("E79 (designed binder) 10Fn3 domain: MGVSDVPRDLEVVAATPTSLLISWQDTSSYHQYYRITYGETGGNSPVQEFTVPGGVRTATISGLKPGVDYTITVYAVTDYFNPSTHEYIYRTIPISINYRTEIDKPSQ")
99.2
>>> value_measured("E75 (designed binder) 10Fn3 domain: MGVSDVPRDLEVVAATPTSLLISWAAGRATYQYYRITYGETGGNSPVQEFTVPYDVTTATISGLKPGVDYTITVYAVTDFYNPATHEYYYETTPISINYRTEIDKPSQ")
76.5
>>> value_measured("E81 (designed binder) 10Fn3 domain: MGVSDVPRDLEVVAATPTSLLISWDNNSNSYQYYRITYGETGGNSPVQEFTVPYDLRTATISGLKPGVDYTITVYAVTDYKPHTEGEHTYHESPISINYRTEIDKPSQ")
75.1
>>> value_measured("E4 (designed binder) 10Fn3 domain: MGVSDVPRDLEVVAATPTSLLISWHERDGSRQYYRITYGETGGNSPVQEFTVPGGVRTATISGLKPGVDYTITVYAVTDYFNPTTHEYIYQTTPISINYRTEIDKPSQ")
94.3
>>> value_measured("E76 (designed binder) 10Fn3 domain: MGVSDVPRDLEVVAATPTSLLISWYSQPLTYQYYRITYGETGGNSPVQEFTVPHDVNTATISGLKPGVDYTITVYAVTDFYNPETHEYTYHLTPISINYRTEIDKPSQ")
79
>>> value_measured("E77 (designed binder) 10Fn3 domain: MGVSDVPRDLEVVAATPTSLLISWSSATRPYQYYRITYGETGGNSPVQEFTVPGGVRTATISGLKPGVDYTITVYAVTDFFNPTTHEYYYHTTPISINYRTEIDKPSQ")
81.1
>>> value_measured("E80 (designed binder) 10Fn3 domain: MGVSDVPRDLEVVAATPTSLLISWSSSHRRYQYYRITYGETGGNSPVQEFTVPGSVATATISGLKPGVDYTITVYAVTDYFNPDTHEYLYHATPISINYRTEIDKPSQ")
89.6
>>> value_measured("E78 (designed binder) 10Fn3 domain: MGVSDVPRDLEVVAATPTSLLISWSVERSVYQYYRITYGETGGNSPVQEFTVPGGVRTATISGLKPGVDYTITVYAVTDYYNPSTHEYNYLTTPISINYRTEIDKPSQ")
76.9
>>> value_measured("E83 (designed binder) 10Fn3 domain: MGVSDVPRDLEVVAATPTSLLISWMFVGMSYQYYRITYGETGGNSPVQEFTVPYGVHTATISGLKPGVDYTITVYAVTDYFNPATHEYIYHVTPISINYRTEIDKPSQ")
90.7
>>> value_measured("E74 (designed binder) 10Fn3 domain: MGVSDVPRDLEVVAATPTSLLISWRASGGLYQYYRITYGETGGNSPVQEFTVPGSVNTATISGLKPGVDYTITVYAVTDFYNPATYEYIYHTTPISINYRTEIDKPSQ")
80.9

Cited source for all entries: patent US20180037631A1
